target: hOAT3 (Homo sapiens); assay: Inhibition of 3H-ES uptake in hOAT3-transfected cells by liquorice ingredients; type: in vitro ADME; conditions: read-out: IC50 on hOAT3; 3H-ES probe, 2 min
Sequence (Q8TCC7 whole entry): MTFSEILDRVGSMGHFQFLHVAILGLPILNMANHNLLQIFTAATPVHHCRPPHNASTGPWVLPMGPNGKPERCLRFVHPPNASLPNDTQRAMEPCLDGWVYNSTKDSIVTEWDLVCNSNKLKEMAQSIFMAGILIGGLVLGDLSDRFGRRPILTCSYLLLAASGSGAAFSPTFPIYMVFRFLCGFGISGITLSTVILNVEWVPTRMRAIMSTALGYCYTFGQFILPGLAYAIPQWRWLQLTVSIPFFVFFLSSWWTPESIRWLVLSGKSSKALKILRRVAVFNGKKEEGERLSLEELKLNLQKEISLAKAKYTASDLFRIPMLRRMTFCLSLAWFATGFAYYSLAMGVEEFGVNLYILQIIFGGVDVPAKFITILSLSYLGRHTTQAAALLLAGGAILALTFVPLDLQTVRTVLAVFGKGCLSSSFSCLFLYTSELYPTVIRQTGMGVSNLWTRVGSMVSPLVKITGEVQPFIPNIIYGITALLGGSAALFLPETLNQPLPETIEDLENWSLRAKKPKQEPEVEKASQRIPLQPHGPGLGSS
EXPERIMENTAL ENDPOINT: IC50 (µM)
Just the number in µM, nothing appended.

Q. Bench note: what IC50 did `C=CC(C)(C)c1cc(/C=C/C(=O)c2ccc(O)cc2)c(OC)cc1O` show?
A. 3.6

###

molecular target: hOAT3 (Homo sapiens); assay: Inhibition of 3H-ES uptake in hOAT3-transfected cells by liquorice ingredients; format: in vitro ADME
EXPERIMENTAL ENDPOINT: pIC50
The quantity pIC50 is defined as the negative base-10 logarithm of the molar concentration.

Q. Bench note: what pIC50 did `O=C(/C=C/c1ccc(O)cc1)c1ccc(O)cc1O` show?
A. 5.66

Q. Subsequent entry: `CC1(C)[C@@H](O)CC[C@]2(C)[C@H]3C(=O)C=C4[C@@H]5C[C@@](C)(C(=O)O)CC[C@]5(C)CC[C@@]4(C)[C@]3(C)CC[C@@H]12`
A. 5.74

###

target: hOATP2B1 (Homo sapiens, UniProt O94956); assay type: in vitro ADME; details: read-out: IC50 on hOATP2B1; 3H-ES probe, 2 min
Sequence (O94956 whole entry): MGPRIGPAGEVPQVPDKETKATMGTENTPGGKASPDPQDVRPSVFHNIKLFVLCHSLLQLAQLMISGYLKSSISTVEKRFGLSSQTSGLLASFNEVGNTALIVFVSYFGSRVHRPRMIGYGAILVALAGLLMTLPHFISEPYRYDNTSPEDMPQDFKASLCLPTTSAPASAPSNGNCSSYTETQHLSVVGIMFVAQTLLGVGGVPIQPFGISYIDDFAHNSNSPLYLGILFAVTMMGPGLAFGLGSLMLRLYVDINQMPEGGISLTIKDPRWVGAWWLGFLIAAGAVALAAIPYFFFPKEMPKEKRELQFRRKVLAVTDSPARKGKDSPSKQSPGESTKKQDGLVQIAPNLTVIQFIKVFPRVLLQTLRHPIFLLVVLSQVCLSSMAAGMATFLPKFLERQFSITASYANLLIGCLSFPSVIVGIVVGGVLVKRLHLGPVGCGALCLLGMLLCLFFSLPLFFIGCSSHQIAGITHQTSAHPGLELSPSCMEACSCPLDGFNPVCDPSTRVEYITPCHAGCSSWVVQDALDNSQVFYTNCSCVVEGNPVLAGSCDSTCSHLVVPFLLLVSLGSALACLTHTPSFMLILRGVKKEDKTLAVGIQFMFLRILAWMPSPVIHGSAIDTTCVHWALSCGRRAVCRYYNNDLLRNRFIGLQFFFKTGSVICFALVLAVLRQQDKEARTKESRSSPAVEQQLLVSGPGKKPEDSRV
EXPERIMENTAL ENDPOINT: pIC50
The quantity pIC50 is defined as the negative base-10 logarithm of the molar concentration.

Q. Bench note: what pIC50 did `C=CC(C)(C)c1cc(/C=C/C(=O)c2ccc(O)cc2)c(OC)cc1O` show?
A. 5.96

###

Target: hOCT1 (Homo sapiens)
Sequence (O15245 1-554): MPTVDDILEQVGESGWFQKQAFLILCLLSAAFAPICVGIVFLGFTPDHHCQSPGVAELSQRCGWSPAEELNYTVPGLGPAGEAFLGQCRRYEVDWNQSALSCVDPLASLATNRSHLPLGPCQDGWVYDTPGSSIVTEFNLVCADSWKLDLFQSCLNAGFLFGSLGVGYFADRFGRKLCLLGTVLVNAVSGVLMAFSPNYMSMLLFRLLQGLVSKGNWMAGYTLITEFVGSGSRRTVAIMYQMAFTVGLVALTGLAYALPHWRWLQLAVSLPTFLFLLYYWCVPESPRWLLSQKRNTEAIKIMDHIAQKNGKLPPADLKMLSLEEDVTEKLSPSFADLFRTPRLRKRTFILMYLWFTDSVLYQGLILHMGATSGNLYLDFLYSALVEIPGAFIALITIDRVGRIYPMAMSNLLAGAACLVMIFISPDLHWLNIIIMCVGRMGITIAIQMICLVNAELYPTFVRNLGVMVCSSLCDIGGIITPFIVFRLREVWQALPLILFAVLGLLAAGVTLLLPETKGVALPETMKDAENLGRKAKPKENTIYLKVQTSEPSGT
Test: Uptake of aconitum alkaloids in hOCT1-transfected cells vs mock
Type: in vitro ADME
Conditions: 10 μm, 5 min
EXPERIMENTAL ENDPOINT: concentration in HEK293–hOCT1, fold higher than control

[[record]]
structure_smiles = "CCN1C[C@]2(COC)[C@H](O)C[C@H](OC)[C@@]34[C@@H]5C[C@@]6(O)[C@H](OC(=O)c7ccccc7)[C@@H]5[C@@](OC(C)=O)([C@@H]([C@H](OC)[C@H]23)[C@@H]14)[C@@H](O)[C@@H]6OC"
result_value = "roughly 1.9 fold"

[[record]]
structure_smiles = "CCN1C[C@]2(COC)[C@H](O)C[C@H](OC)[C@@]34[C@@H]5C[C@@]6(O)[C@H](OC(=O)c7ccccc7)[C@@H]5[C@@](O)([C@@H]([C@H](OC)[C@H]23)[C@@H]14)[C@@H](O)[C@@H]6OC"
result_value = "~2.3 fold"

[[record]]
structure_smiles = "COC[C@@]12CC[C@H](OC)[C@]34C([C@H]([C@H](OC)[C@H]13)[C@]1(O)[C@H]3[C@@H](OC(=O)c5ccccc5)[C@](O)(C[C@H]34)[C@@H](OC)[C@@H]1O)N(C)C2"
result_value = "~3.7 fold"

[[record]]
structure_smiles = "COC[C@]12CN(C)C3[C@@H]4[C@H](OC)[C@H]1[C@@]3([C@@H](OC)C[C@H]2O)[C@@H]1C[C@@]2(O)[C@H](OC(=O)c3ccccc3)[C@@H]1[C@]4(O)[C@@H](O)[C@@H]2OC"
result_value = "~2.2 fold"

[[record]]
structure_smiles = "COC[C@@]12CC[C@H](OC)[C@]34C(C([C@H](OC)[C@H]13)[C@]1(OC(C)=O)[C@H]3[C@@H](OC(=O)c5ccccc5)[C@](O)(C[C@H]34)[C@@H](OC)[C@@H]1O)N(C)C2"
result_value = "~3.3 fold"


Q. Bench note: what concentration in HEK293–hOCT1, fold higher than control did `COC[C@]12CN(C)[C@@H]3[C@@H]4[C@H](OC)[C@H]1[C@@]3([C@@H](OC)C[C@H]2O)[C@@H]1C[C@@]2(O)[C@H](OC(=O)c3ccccc3)[C@@H]1[C@]4(OC(C)=O)[C@@H](O)[C@@H]2OC` show?
A. roughly 1.9 fold

This collection of values is drawn from paper PMC9064382.
